target: VIM-1 (Pseudomonas aeruginosa (strain ATCC 15692 / DSM 22644 / CIP 104116 / JCM 14847 / LMG 12228 / 1C / PRS 101 / PAO1), UniProt A0A0F7KYQ8)
assay: Enzyme activity: determination of IC50, fluorescence assay with CCF2-FA substrate (VIM-1)
Assay type: biochemical
condition_parameters: VIM-1 IC50, fluorescence assay with CCF2-FA substrate

molecule	IC50 [nM]
Cc1cccc(Cc2cccc(S(N)(=O)=O)c2-c2nnn[nH]2)c1	352
NS(=O)(=O)c1cccc(CCc2ccccc2)c1-c1nnn[nH]1	80.8
Nc1nc(N)c2ccc(-c3ccc(C(F)(F)F)c(S(N)(=O)=O)c3-c3nnn[nH]3)cc2n1	0.432
NC1CCCC1N1CC(c2ccc(-c3ccc(C(F)(F)F)c(S(N)(=O)=O)c3-c3nnn[nH]3)cc2)C1 (stereo not shown)	27.9
Cc1nc(F)ccc1-c1cccc(S(N)(=O)=O)c1-c1nn[nH]n1	60.2
NS(=O)(=O)c1cccc(-c2cncc(F)c2)c1-c1nn[nH]n1	43.6
Cc1sccc1-c1cccc(S(N)(=O)=O)c1-c1nn[nH]n1	45
NS(=O)(=O)c1c(C(F)(F)F)ccc(-c2ccc(C3CCNCC3)nc2)c1-c1nnn[nH]1	0.907
NS(=O)(=O)c1ccc(-c2cccc(S(N)(=O)=O)c2-c2nn[nH]n2)cc1	62
NS(=O)(=O)c1c(C(F)(F)F)ccc(N2CCC(C3CCNCC3)C2)c1-c1nnn[nH]1 (stereo not shown)	1.35
